These entries and their values trace back to paper PMC9391306.

measurement_target: PARP1 L713F (UniProt P09874 1-1014, L713F)
Sequence (P09874 whole entry L713F): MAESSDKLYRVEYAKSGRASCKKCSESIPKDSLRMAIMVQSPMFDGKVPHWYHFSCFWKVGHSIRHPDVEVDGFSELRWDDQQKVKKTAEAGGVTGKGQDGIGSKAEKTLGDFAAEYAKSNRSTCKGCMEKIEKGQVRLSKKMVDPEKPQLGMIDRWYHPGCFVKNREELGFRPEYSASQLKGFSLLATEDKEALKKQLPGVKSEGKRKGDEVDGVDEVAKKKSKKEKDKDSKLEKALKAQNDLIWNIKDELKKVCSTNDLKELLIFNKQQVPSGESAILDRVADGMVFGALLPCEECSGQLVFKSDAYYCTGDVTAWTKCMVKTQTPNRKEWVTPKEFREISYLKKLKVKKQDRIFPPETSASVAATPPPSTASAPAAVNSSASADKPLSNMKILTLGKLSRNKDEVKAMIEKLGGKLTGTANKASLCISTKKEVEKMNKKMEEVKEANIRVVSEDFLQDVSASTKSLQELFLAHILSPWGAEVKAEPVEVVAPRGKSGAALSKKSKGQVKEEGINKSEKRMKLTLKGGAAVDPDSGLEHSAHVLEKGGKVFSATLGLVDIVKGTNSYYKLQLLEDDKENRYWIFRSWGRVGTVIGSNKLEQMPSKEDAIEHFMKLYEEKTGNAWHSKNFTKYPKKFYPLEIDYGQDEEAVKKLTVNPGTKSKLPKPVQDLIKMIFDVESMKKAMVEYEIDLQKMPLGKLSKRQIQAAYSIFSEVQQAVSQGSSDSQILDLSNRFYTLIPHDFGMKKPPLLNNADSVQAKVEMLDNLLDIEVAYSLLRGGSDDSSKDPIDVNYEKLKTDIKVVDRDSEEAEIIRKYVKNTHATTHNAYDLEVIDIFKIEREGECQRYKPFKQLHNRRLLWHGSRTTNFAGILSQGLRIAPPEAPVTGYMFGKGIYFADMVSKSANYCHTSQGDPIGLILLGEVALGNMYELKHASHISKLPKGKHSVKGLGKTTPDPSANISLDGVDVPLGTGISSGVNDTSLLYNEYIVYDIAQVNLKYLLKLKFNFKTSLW
procedure_text: fluorescence polarization
metric_name: Kd (nM)

> print(dat)
                                     binder  observed.measurement
1  18-bp DSB duplex (dsDNA) DNA 1: GGGTTGCGGCCGCTTGGG DNA 2: CCCAAGCGGCCGCAACCC                   6.2
